The reported measurements were obtained from patent US7678787B2.

PARAMETER MEASURED: melting point

{"MOLECULE SMILES": "Cc1ccccc1-c1ccc(C(=O)N2Cc3ccc(C(=O)NCc4cccnc4)n3Cc3ccccc32)cc1", "melting point": "176 to 177 °C"}
{"MOLECULE SMILES": "Cc1cccc(C)c1-c1ccc(C(=O)N2Cc3ccc(C(=O)NCc4cccnc4)n3Cc3ccccc32)cc1", "melting point": "216 to 218 °C (dec.)"}
{"MOLECULE SMILES": "O=C(NCc1cccnc1)c1ccc2n1Cc1ccccc1N(C(=O)c1ccc(-c3ncccn3)cc1)C2", "melting point": "234 to 236 °C"}

Proceeding to the next compound to report its melting point.
melting point recorded for this compound, `O=C(NCc1cccnc1)c1ccc2n1Cc1ccccc1N(C(=O)c1ccc(-c3cncnc3)cc1)C2` , is 172 to 175 °C

====

# TARGET UNDER TEST: human FSH receptor (Homo sapiens)
# Sequence (P23945 18-695): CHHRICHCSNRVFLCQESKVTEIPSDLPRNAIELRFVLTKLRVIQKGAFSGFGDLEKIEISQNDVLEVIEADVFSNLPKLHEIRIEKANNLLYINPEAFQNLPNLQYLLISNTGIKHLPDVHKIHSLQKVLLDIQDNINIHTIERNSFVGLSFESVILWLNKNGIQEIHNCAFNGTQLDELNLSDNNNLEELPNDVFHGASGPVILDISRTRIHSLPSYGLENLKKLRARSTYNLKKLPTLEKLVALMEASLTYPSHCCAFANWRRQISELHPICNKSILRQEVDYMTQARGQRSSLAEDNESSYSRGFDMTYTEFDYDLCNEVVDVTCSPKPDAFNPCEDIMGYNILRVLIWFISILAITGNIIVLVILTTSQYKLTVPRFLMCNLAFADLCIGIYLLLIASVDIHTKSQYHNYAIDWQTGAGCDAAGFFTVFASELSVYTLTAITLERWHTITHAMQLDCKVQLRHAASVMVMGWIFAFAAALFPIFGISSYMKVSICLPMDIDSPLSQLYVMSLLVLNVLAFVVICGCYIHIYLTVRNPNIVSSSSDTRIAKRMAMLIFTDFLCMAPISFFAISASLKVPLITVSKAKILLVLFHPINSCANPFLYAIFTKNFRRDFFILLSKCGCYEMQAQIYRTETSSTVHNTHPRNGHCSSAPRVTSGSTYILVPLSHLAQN
# MEASUREMENT DESCRIPTION: FSH receptor-dependent CRE-luciferase reporter gene assay (CHO FSH-R 6CRE-Luc cells)
# CONDITION SUMMARY: dose-response format in presence of EC50 of purified human FSH; * n=3, ** n=2 averages
Listed here: items and their measured IC50.
Write it as a number; the unit µM goes unstated.

Example entries and their recorded answers appear below.
{"COMPOUND": "NS(=O)(=O)c1ccccc1-c1ccc(C(=O)N2Cc3ccc(C(=O)NCc4cccnc4)n3Cc3ccccc32)cc1 [Example 16]", "IC50 [µM]": 0.994}
{"COMPOUND": "O=C(O)Cc1ccccc1-c1ccc(C(=O)N2Cc3ccc(C(=O)NCc4cccnc4)n3Cc3ccccc32)cc1 [Example 35]", "IC50 [µM]": 31}

Proceeding to the next compound to report its IC50.
IC50 recorded for this compound, CSc1ccccc1-c1ccc(C(=O)N2Cc3ccc(C(=O)NCc4cccnc4)n3Cc3ccccc32)cc1 [Example 14, HYDRATE] , is 1.61

====

Listed here: items and their measured pIC50.
# TARGET UNDER TEST: hFSH-R (Homo sapiens)
# Sequence (P23945 18-695): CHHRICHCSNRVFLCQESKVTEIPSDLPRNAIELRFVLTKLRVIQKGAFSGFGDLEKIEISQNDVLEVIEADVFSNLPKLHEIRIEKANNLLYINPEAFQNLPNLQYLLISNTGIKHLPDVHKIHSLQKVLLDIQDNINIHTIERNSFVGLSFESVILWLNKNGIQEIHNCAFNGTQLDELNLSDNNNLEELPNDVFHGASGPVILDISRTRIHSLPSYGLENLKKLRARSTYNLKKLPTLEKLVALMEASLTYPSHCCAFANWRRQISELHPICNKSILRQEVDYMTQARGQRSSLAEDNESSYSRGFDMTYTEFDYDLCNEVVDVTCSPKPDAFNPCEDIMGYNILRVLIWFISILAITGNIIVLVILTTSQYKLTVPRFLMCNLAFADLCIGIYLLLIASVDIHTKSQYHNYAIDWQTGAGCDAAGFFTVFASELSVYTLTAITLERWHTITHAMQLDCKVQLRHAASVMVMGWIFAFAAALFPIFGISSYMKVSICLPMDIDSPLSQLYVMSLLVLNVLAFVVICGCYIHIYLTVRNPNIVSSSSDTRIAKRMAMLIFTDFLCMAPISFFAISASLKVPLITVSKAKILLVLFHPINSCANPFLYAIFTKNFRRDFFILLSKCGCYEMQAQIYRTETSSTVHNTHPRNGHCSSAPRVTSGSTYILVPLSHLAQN
# MEASUREMENT DESCRIPTION: cAMP accumulation (RIA) in CHO-3D2 cells (hFSH-R), hFSH-induced
# CONDITION SUMMARY: inhibition of cAMP accumulation induced by hFSH at EC20, CHO-3D2 cells
Scale explanation: pIC50 corresponds to minus log10 of a concentration expressed in moles per litre.

Example entries and their recorded answers appear below.
{"COMPOUND": "CCOc1ccccc1-c1ccc(C(=O)N2Cc3ccc(C(=O)NCc4cccnc4)n3Cc3ccccc32)cc1 [Example 33]", "PARAMETER MEASURED": "pIC50", "ASSAY RESULT": 6.05}
{"COMPOUND": "CC(O)c1ccccc1-c1ccc(C(=O)N2Cc3ccc(C(=O)NCc4ccc[n+]([O-])c4)n3Cc3ccccc32)cc1 (stereo not shown) [Example 55]", "PARAMETER MEASURED": "pIC50", "ASSAY RESULT": 6.21}
{"COMPOUND": "N#CCc1ccccc1-c1ccc(C(=O)N2Cc3ccc(C(=O)NCc4cccnc4)n3Cc3ccccc32)cc1 [Example 17]", "PARAMETER MEASURED": "pIC50", "ASSAY RESULT": 6.89}

The reported hFSH-R (Homo sapiens) pIC50 of O=C(NCc1cccnc1)c1ccc2n1Cc1ccccc1N(C(=O)c1ccc(-c3cccnc3)cc1)C2 [Example 108] is 5.74

The reported hFSH-R (Homo sapiens) pIC50 of COc1cccc(-c2ccc(C(=O)N3Cc4ccc(C(=O)NCc5cccnc5)n4Cc4ccccc43)cc2C)c1 [Example 70] is 5.62

The reported hFSH-R (Homo sapiens) pIC50 of O=C(NCc1cccnc1)c1ccc2n1Cc1ccccc1N(C(=O)c1ccc(-c3ccccc3O)cc1)C2 [Example 34] is 6.23

The reported hFSH-R (Homo sapiens) pIC50 of CC(O)c1ccccc1-c1ccc(C(=O)N2Cc3ccc(C(=O)NCc4cccnc4)n3Cc3ccccc32)cc1 (racemic) [Example 52] is 7.00

====

# TARGET UNDER TEST: human FSH receptor (Homo sapiens)
# Sequence (P23945 18-695): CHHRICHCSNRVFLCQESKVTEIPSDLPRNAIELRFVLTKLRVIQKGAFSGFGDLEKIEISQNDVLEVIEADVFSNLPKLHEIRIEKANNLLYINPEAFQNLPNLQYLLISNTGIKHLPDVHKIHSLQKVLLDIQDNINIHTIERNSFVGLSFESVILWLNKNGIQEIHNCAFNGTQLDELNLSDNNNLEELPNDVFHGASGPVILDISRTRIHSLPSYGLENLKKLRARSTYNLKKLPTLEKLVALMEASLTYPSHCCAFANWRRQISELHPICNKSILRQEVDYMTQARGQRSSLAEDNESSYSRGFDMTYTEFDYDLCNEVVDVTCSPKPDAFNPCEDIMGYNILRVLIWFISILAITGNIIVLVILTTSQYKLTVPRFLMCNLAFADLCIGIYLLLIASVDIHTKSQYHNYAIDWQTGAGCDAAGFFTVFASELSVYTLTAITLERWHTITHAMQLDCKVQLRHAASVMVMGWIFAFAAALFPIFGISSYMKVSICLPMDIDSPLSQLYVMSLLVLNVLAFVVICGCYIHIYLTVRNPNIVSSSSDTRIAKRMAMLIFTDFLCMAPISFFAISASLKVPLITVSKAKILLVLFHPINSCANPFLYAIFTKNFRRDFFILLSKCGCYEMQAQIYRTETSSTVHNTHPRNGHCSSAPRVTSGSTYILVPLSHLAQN
# MEASUREMENT DESCRIPTION: FSH receptor-dependent CRE-luciferase reporter gene assay (CHO FSH-R 6CRE-Luc cells)
# CONDITION SUMMARY: dose-response format in presence of EC50 of purified human FSH; * n=3, ** n=2 averages
Each entry falls in a class defined on IC50; the bands are bottom bin: < 0.9 µM; middle bin: ≥ 0.9 µM and < 8 µM; top bin: ≥ 8 µM

The entry to classify is CCC(O)c1ccccc1-c1ccc(C(=O)N2Cc3ccc(C(=O)NCc4cccnc4)n3Cc3ccccc32)cc1 (stereo not drawn) ; which class holds it?
bottom bin

The entry to classify is `O=C(NCc1cccnc1)c1ccc2n1Cc1ccccc1N(C(=O)c1ccc(-c3ccccc3O)cc1)C2` ; which class holds it?
middle bin

The entry to classify is `O=C(NCc1cccnc1)c1ccc2n1Cc1ccccc1N(C(=O)c1ccc(-c3ccccc3CN3CCCC3)cc1)C2` ; which class holds it?
top bin

The entry to classify is `COc1ccccc1-c1ccc(C(=O)N2Cc3ccc(C(=O)NCc4cccnc4)n3Cc3ccccc32)cc1` ; which class holds it?
bottom bin

The entry to classify is `COc1ccccc1CNc1ccc(C(=O)N2Cc3ccc(C(=O)NCc4cccnc4)n3Cc3ccccc32)cn1` ; which class holds it?
top bin

The entry to classify is `O=C(NCc1cccnc1)c1ccc2n1Cc1ccccc1N(C(=O)Cc1ccc(Cl)cc1)C2` ; which class holds it?
top bin

The entry to classify is `O=C(NCc1cccnc1)c1ccc2n1Cc1ccccc1N(C(=O)c1ccc(-c3ccccc3CN3CCOCC3)cc1)C2` ; which class holds it?
bottom bin

The entry to classify is `NCc1ccccc1-c1ccc(C(=O)N2Cc3ccc(C(=O)NCc4cccnc4)n3Cc3ccccc32)cc1` ; which class holds it?
middle bin

The entry to classify is `COc1cccc(-c2ccc(C(=O)N3Cc4ccc(C(=O)NCc5cccnc5)n4Cc4ccccc43)cc2C)c1` ; which class holds it?
middle bin

The entry to classify is `O=C(NCc1cccnc1)c1ccc2n1Cc1ccccc1N(C(=O)c1ccc(-c3ccncc3)cc1)C2` ; which class holds it?
middle bin

The entry to classify is `Cc1cc(C(=O)N2Cc3ccc(C(=O)NCc4cccnc4)n3Cc3ccccc32)ccc1-c1ccccc1F` ; which class holds it?
middle bin

The entry to classify is `COc1ccccc1-c1ccc(C(=O)N2Cc3ccc(C(=O)NCc4cccnc4Oc4ccccc4)n3Cc3ccccc32)cc1` ; which class holds it?
middle bin

The entry to classify is `O=C(NCc1cccnc1)c1ccc2n1Cc1ccccc1N(C(=O)c1cc(Cl)sc1Cl)C2` ; which class holds it?
top bin

The entry to classify is `CC(C)c1ccccc1-c1ccc(C(=O)N2Cc3ccc(C(=O)NCc4cccnc4)n3Cc3ccccc32)cc1` ; which class holds it?
middle bin
